Tested on: NCI-H23 lung
Test summary: NCI tumour cell line growth inhibition, 48 h
Measurement name: TGI

Observe how each entry below is paired with its result.
compound=CCN(CC)CCSc1n[nH]c(-c2c[nH]c3nc(C)ccc3c2=O)n1 measurement_name=TGI readout_value="> 100 µM"
compound=CN(C)CCn1c(=O)oc2cc(C(=O)CN3CCOCC3)ccc21 measurement_name=TGI readout_value="> 100 µM"
compound=CCOc1ncn(-c2ccc(NC(=S)Nc3cnccn3)cc2)n1 measurement_name=TGI readout_value="> 10 µM"

Request: Which TGI is listed for Nc1c(S(=O)(=O)O)cc(Nc2cccc(S(N)(=O)=O)c2)c2c1C(=O)c1ccccc1C2=O ?
Result: > 100 µM

Request: I would be grateful if you could share the reported TGI for Cc1cc2c(=O)cc(-c3ccc(C(F)(F)F)cc3)oc2c(C(=O)O)c1C .
Result: > 100 µM

Request: Need TGI of CN(C(=O)[C@@H](NC(=O)OC(C)(C)C)c1ccccc1)[C@H]1CCCC[C@@H]1N1CCCC1 , thanks.
Result: > 100 µM

Request: I am curious: what TGI value has been reported for CC1(C)C(=O)N(O)C(C)(C)N1N=O ?
Result: > 10 µM

Request: Entry CC(C)(O)/C=C\P(C)(=O)c1ccccc1 (stereo unspecified) : reported TGI = ?
Result: > 100 µM

----------
Test system: UACC-257 melanoma
Test summary: NCI tumour cell line growth inhibition, 48 h
Listed compounds paired with reported TGI

Worked cases, answers included:
compound=CC1(C)C(=O)N(O)C(C)(C)N1N=O measurement_name=TGI readout_value="> 10 µM"
compound=O=C1N[C@H]2C(=O)c3c(Cl)sc(Cl)c3[C@H]2O1 measurement_name=TGI readout_value="23 µM"
compound="O=C1NC(=O)[C@@H](OCC2CCCCC2)[C@@H]2OCC3OC(C(O)C3O)C12 (stereo partly drawn)" measurement_name=TGI readout_value="> 100 µM"
compound=CC(C)[C@H]1CO[C@@H]2O[C@H](C)CC(=O)N21 measurement_name=TGI readout_value="> 100 µM"
compound="CCOC(=O)CCC(NC(=O)c1ccc(Nc2cnc3cc(C(F)(F)F)ccc3n2)cc1)C(=O)OCC (stereo not drawn)" measurement_name=TGI readout_value="> 100 µM"

Request: Consider the compound shown here: OC12CC3c4ccccc4NC3C3Oc4cccc5c4C31CCN(CC1CC1)C2C5 (stereo not drawn) What is its recorded TGI?
Result: 32.4 µM

Request: Need TGI of CC(C)(C)OC(=O)NNC(=O)C1Cc2ccccc2OC1=O (stereo not drawn) , thanks.
Result: > 100 µM

Request: Fill blank: measured TGI of the compound CC(C)c1cccc(C(C)C)c1NC(=O)C(=O)CC(=O)CC(c1ccccc1)c1c(O)c2ccccc2oc1=O (stereo not drawn) is ____.
Result: > 100 µM

Request: What measured TGI goes with CC1=C(C(=O)NNC(=O)C(N)=O)CC(C(=O)NNC(=O)C(N)=O)=C(C)N1 ?
Result: > 100 µM

Request: Quick check: TGI of Cc1ccc(/C=N/Nc2cc(C)c3ccccc3n2)s1 ?
Result: 50.7 µM

Request: Entry COc1cc2c(cc1O)[C@H](C)C(c1ccccc1OC)O2 (stereo partly drawn) : reported TGI = ?
Result: > 100 µM

Request: Need TGI of COC(=O)C1=C([C@H]2COC(C)(C)O2)[C@H]2C[C@@H]1[C@@H]1OC(C)(C)O[C@@H]12 , thanks.
Result: > 100 µM

Request: Would you mind telling me what TGI value was observed for COC1/C=C\OC2(C)Oc3c(C)c(O)c4c(O)c(c(/C=N\OCCCc5ccccc5)c(O)c4c3C2=O)NC(=O)/C(C)=C\C=C/C(C)C(O)C(C)C(O)C(C)C(OC(C)=O)C1C (stereo not drawn) ?
Result: 18.6 µM

----------
Test system: OVCAR-3 ovarian
Test summary: NCI tumour cell line growth inhibition, 48 h
Measurement name: TGI

Request: Please look up its TGI: CC(C)(C)C1(c2ccc(C3(c4ccccc4)Oc4ccccc4S3)[nH]2)Oc2ccccc2S1 (stereo unspecified)
Result: > 100 µM

Request: Returns the measured TGI for the input molecule. Input: O=[N+]([O-])c1cc2c(cc1O)[nH]c1cccc([N+](=O)[O-])c12
Result: > 100 µM

Request: Which TGI value is on record for C=C1CC23CCC4C(C)(C(=O)O)CCCC4(C)C2CCC1C3 (stereo unspecified) ?
Result: > 100 µM

Request: Recorded TGI of CC(N)(Cc1c[nH]c2ccccc12)C(=O)O (stereo unspecified) , please.
Result: > 2500 µM

Request: State the recorded TGI for this entry: CCC(C(=O)c1cccs1)C(O)(C(F)(F)F)C(F)(F)F (stereo unspecified)
Result: > 100 µM

Request: What value of measured TGI is listed for O=S(=O)(O)c1cc(N=Nc2cc(S(=O)(=O)O)c3ccccc3c2O)ccc1/C=C/c1ccc(N=Nc2cc(S(=O)(=O)O)c3ccccc3c2O)cc1S(=O)(=O)O ?
Result: > 1000 µM

Request: # lookup: TGI of COc1cccc(CCn2c(N)c(C(=O)O)c3ccc([N+](=O)[O-])cc3c2=O)c1
Result: > 100 µM

Request: Query: TGI; subject: COc1ccc2c(c1)CCC(CN1CCN(CCOC(c3ccc(F)cc3)c3ccc(F)cc3)CC1)C2O (stereo unspecified)
Result: 32.5 µM

Request: Quick check: TGI of Nc1ccc2ncc(Nc3ccc(F)cc3)nc2c1 ?
Result: > 100 µM

Request: Please look up its TGI: N#CC(c1ccccc1)N(CCc1ccccc1)C(=O)c1ccccc1 (stereo unspecified)
Result: > 100 µM

Request: What value of measured TGI is listed for CCOC(=O)c1c(C)noc1/N=N/N(CCO)CCO ?
Result: 59.4 µM

----------
Test system: OVCAR-5 ovarian
Test summary: NCI tumour cell line growth inhibition, 48 h
Below, each of the compounds is paired with its reported TGI value.

Sample records with TGI:
compound=CCNc1nc(N)c(C(=O)c2cccs2)s1 measurement_name=TGI readout_value="> 100 µM"
compound=O=C(O)c1c([N+](=O)[O-])cc(C(F)(F)F)cc1[N+](=O)[O-] measurement_name=TGI readout_value="> 100 µM"
compound=COc1cc(-c2cc(-c3nc4cc(Cl)c(Cl)cc4[nH]3)[nH]n2)cc(OC)c1OC measurement_name=TGI readout_value="21.6 µM"
compound="CCOC(=O)CCC(NC(=O)c1ccc(Nc2cnc3cc(C(F)(F)F)ccc3n2)cc1)C(=O)OCC (configuration not stated)" measurement_name=TGI readout_value="> 100 µM"
compound=CC(=O)c1cccc(Nc2c3ccccc3nc3occc23)c1 measurement_name=TGI readout_value="> 100 µM"
compound=O=C1CCc2nc3ncccc3cc2C1 measurement_name=TGI readout_value="> 100 µM"
compound=CC(=O)/C=C(/C=N/O)c1ccccc1 measurement_name=TGI readout_value="> 100 µM"
compound=COc1cc([N+](=O)[O-])c(S(=O)(=O)O)cc1N measurement_name=TGI readout_value="> 100 µM"
compound=CCOc1ncn(-c2ccc(NC(=S)Nc3cnccn3)cc2)n1 measurement_name=TGI readout_value="> 10 µM"
compound="CC(C)(O)/C=C\\P(C)(=O)c1ccccc1 (configuration not stated)" measurement_name=TGI readout_value="> 100 µM"

Request: Which measured TGI belongs to CC1C(/C=C/c2ccoc2)ON2CCCC12 (configuration not stated) , tested on OVCAR-5 ovarian?
Result: > 100 µM

Request: Field: TGI (OVCAR-5 ovarian). Entry: O=c1oc2ccccc2cc1-c1csc(Nc2cc(Cl)cc(Cl)c2)n1
Result: > 100 µM

Request: Find TGI (OVCAR-5 ovarian) for the entry C[n+]1c2ccccc2c(C(=O)NC(CCCN=C(N)N)C(=O)O)c2ccccc21 (configuration not stated)
Result: > 100 µM

Request: Return TGI measured with OVCAR-5 ovarian given this compound: O=C1c2ccc3c4c(ccc(c24)C(=O)N1CCCNCc1ccccc1)C(=O)N(CCCNCc1ccccc1)C3=O
Result: 0.648 µM

Request: Lab note: need TGI for C=C1C(=O)OC2/C=C(\C)C(=O)CC3OC(C)(C)OC3(C)CC(OC(=O)/C(C)=C/C)C12 (configuration not stated) on OVCAR-5 ovarian, anyone have it?
Result: 47.2 µM

Request: Notebook: pull reported TGI for OVCAR-5 ovarian, entry CCN(CC)CCOc1ccc(N2Cc3ccccc3C2=O)cc1
Result: > 10 µM

----------
Test system: SF-268 CNS
Test summary: NCI tumour cell line growth inhibition, 48 h; in the data active means GI50 below about 0.43 µM; inactive means the rest
The categories you may choose from are t (active), f (inactive)

molecule=Cc1c2cnccc2c(C)c2c1c1cc(C(=O)O)ccc1n2C classification=f
molecule=COc1cc(CNc2nc3cc(N)cc(N)c3nc2-c2ccccc2)cc(OC)c1OC classification=f
molecule="CN1C(=O)N(C)C2C1NN=c1s/c(=C\\c3c[nH]c4ccccc34)c(=O)n12 (stereo not given)" classification=f
molecule=FC(F)(F)c1[nH]ncc1-c1nc2c(N3CCCCC3)cc3[nH]ncc3c2c2c1CCCC2 classification=f

Here's the next entry for you.
Request: Could you check what this test reported for O=C1c2ccc3c4c(ccc(c24)C(=O)N1CCCNCc1ccccc1)C(=O)N(CCCNCc1ccccc1)C3=O ?
Result: t
